# Test: Selectivity index, ratio of IC50 for human HaCaT cells to IC50 for human MCF7 cells
# Format: toxicity
# Experimental parameters: HaCaT cells versus MCF7 cells, read-out: Ratio IC50
Mark t only for selectivity ratio values smaller than 6; exact matches and larger values are f.

sample_smiles=NS(=O)(=O)c1cc(C(=O)N/N=C/c2ccc(O)cc2O)c(SCc2ccc(F)cc2)cc1Cl assigned_label=t
sample_smiles=NS(=O)(=O)c1cc(C(=O)N/N=C/c2ccc(O)cc2O)c(SCc2ccccc2)cc1Cl assigned_label=t

Query: I'd appreciate it if you could check whether "NNC(=O)c1cc(S(N)(=O)=O)c(Cl)cc1SCc1ccc(F)cc1" has selectivity ratio smaller than 6.
Reply: t

Query: Param item: "NS(=O)(=O)c1cc(C(=O)N/N=C/c2ccc(Br)cc2O)c(SCc2ccccc2)cc1Cl"
Reply: f

Query: Param item: "NS(=O)(=O)c1cc(C(=O)N/N=C/c2ccc(Br)cc2O)c(SCc2ccc(F)cc2)cc1Cl"
Reply: t
